# assayed-system: ATP2B3
# assay-details: pooled miR-30 sensor sort-seq; sequence = guide strand
# settings: shRNA
Returns one of 1 (yes) or 0 (no); 1 (yes) when sensor-assay potency score (higher = more potent) is >= 0.3.

- chain-sequence: "TATTGTACATAGACCGGCGTGC"
  assigned-class: "1 (yes)"
- chain-sequence: "TTTTTCAAGAGGATCTCTGAGG"
  assigned-class: "0 (no)"
- chain-sequence: "TTGGCTTCTTTTGAACTCTTGG"
  assigned-class: "1 (yes)"
- chain-sequence: "TTCCTCACCATGTCGTCCCGGT"
  assigned-class: "0 (no)"
- chain-sequence: "TTGACCAGAAAGATATTCTTGC"
  assigned-class: "1 (yes)"
- chain-sequence: "TTGTCGGTGGGAGACGACCGGG"
  assigned-class: "0 (no)"
- chain-sequence: "TTGTAAAGCTTGTCTTCCGGGA"
  assigned-class: "0 (no)"
- chain-sequence: "TTCTTTTGAACTCTTGGCCCTG"
  assigned-class: "0 (no)"

Please indicate if the recorded sensor-assay potency score (higher = more potent) for TTGCTGTTCAAGATGTTGGTGC meets or exceeds 0.3.
1 (yes)

Entry AAAAAAAACAACTACAACCTTG : is its sensor-assay potency score (higher = more potent) no less than 0.3?
0 (no)

Could you please find out whether TTTGTAAAGCTTGTCTTCCGGG has sensor-assay potency score (higher = more potent) that meets 0.3 or exceeds it?
0 (no)

* * *

# assayed-system: KRTAP13-2
# assay-details: pooled miR-30 sensor sort-seq; sequence = guide strand
# settings: shRNA
Quick reference: sensor-assay potency score (higher = more potent) of the listed items.
Lab note: record the figure alone, no unit after it.

Examples with their reported sensor-assay potency score (higher = more potent) follow.
- chain-sequence: "TCCACATAGGACGTCTGGCAGC"
  reading: -2.1
- chain-sequence: "TAGGCTGGTCTGTAACAAGGAG"
  reading: -0.634
- chain-sequence: "AGGTAGTCACCACAGGAGCGGG"
  reading: -1.51
- chain-sequence: "TAAGTCGTCTTGCAAGGACTGC"
  reading: -0.646
- chain-sequence: "TAGCGCAGGTAGTCACCACAGG"
  reading: -0.777

Now consider a different sequence.
Output sensor-assay potency score (higher = more potent) of TCCAGATCCATAGCCGAGGGAA
-1.28

* * *

Listing: sensor-assay potency score (higher = more potent) of selected sequences
# assayed-system: RAB11A
# assay-details: pooled miR-30 sensor sort-seq; sequence = guide strand
# settings: shRNA
Could you respond with only the numeric value?

Observe how each entry below is paired with its result.
- chain-sequence: "TTTCAATGAATGACAAACCATT"
  reading: -1.27
- chain-sequence: "TATATTTAAATCTCAGACCTGG"
  reading: 0.396
- chain-sequence: "TATAGCTCGATATCGCTCTTGC"
  reading: 0.186
- chain-sequence: "TTATAGCTCGATATCGCTCTTG"
  reading: -0.642
- chain-sequence: "TTGCTTCTGAGAAACAATGCGG"
  reading: -0.544

Using known records, supply sensor-assay potency score (higher = more potent) for ATGAATAGGAACCACATTGTTG
-1.36

Given the sequence TTCATCTGTAGGAACTGCCCTG , write its reported sensor-assay potency score (higher = more potent).
0.239

Give sensor-assay potency score (higher = more potent) for TACATTTGTAGAGTCTAGGGCC
0.146
